Reference for the values: paper PMC5540273

Test system: IKK-alpha;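 note: KINOMEscan kinase panel screen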
Construct: gene CHUK
Details: concentration: 1 μM, replicates: in singlicate; n = 1

compound | measured_target | %Inh [%]
COc1ccc(Nc2nccc(N3CCC(NC(=O)c4cccc(NC(C)=O)c4)C3)n2)cc1 (stereo not drawn) | IKK-alpha | 0
FC(F)(F)c1cc(Nc2nccc(-c3c(-c4ccc(Cl)cc4)nn4ncccc34)n2)ccc1Cl | IKK-alpha | 0
Nc1nc(-c2cccnc2)c(-c2ccnc3ccccc23)s1 | IKK-alpha | 20
Cl.c1ccc(Cn2ccc3cc(Nc4ncnc5ccccc45)ccc32)cc1 | IKK-alpha | 0
CS(=O)(=O)CCNCc1ccc(-c2ccc3ncnc(Nc4ccc(OCc5ccccc5)c(Cl)c4)c3c2)o1.Cl | IKK-alpha | 0
CCc1nc(-c2cccc(N(C)S(=O)(=O)c3ccccc3)c2)c(-c2ccnc(Nc3ccc(N4CCN(C(C)=O)CC4)nc3)n2)s1 | IKK-alpha | 0
OCCOCCn1ccc2ncnc(Nc3ccc(Oc4cccc(Cl)c4)c(Cl)c3)c21 | IKK-alpha | 0
Nc1nc(-c2ccc3c(N)n[nH]c3c2)cc(N2CCCCC2)n1 | IKK-alpha | 0
Cn1ccc2ncnc(Oc3ccc(NC(=O)Nc4cccnc4)c(Cl)c3)c21 | IKK-alpha | 13
Fc1ccc(-c2ncn(CCCNCc3ccccc3)c2-c2ccncc2)cc1 | IKK-alpha | 0
COC(=O)c1cccc(NC(=O)NCCNc2ccnc(Nc3ccc(F)cc3)n2)c1 | IKK-alpha | 0
FC(F)(F)c1ccc(-c2cc(-c3c[nH]nc3-c3ccccn3)ccn2)cc1 | IKK-alpha | 0
Cc1ccc(O)cc1Nc1cc(C(F)(F)F)nc2ccc(-c3ccncc3)cc12 | IKK-alpha | 0
Fc1cccc(COc2ccc(Nc3ncnc4cc[nH]c34)cc2Cl)c1 | IKK-alpha | 5
COC(=O)c1c(-c2ccccc2)c2cc(Cl)ccc2c(=O)n1Cc1ccc(S(C)(=O)=O)cc1 | IKK-alpha | 0
CC(C)(C)OC(=O)NC1CCCN(c2cc(-c3ccc4c(N)n[nH]c4c3)nc(N)n2)C1 (stereo not drawn) | IKK-alpha | 0
CCCc1ccc(S(=O)(=O)NC2CCN(c3ccnc(Nc4ccc(OC)cc4)n3)C2)cc1 (stereo not drawn) | IKK-alpha | 36
O=C(Nc1ccccc1F)NC1CCN(c2ccnc(Nc3ccc(F)cc3)n2)C1 (stereo not drawn) | IKK-alpha | 24
Oc1ccc2ncnc(Nc3ccc(OCc4ccccc4)cc3)c2c1 | IKK-alpha | 7
Fc1cccc(COc2ccc(Nc3ncnc4sc(-c5ccc[nH]5)cc34)cc2Cl)c1 | IKK-alpha | 0
Cl.c1ccc(Cn2ncc3cc(Nc4ncnc5ccccc45)ccc32)cc1 | IKK-alpha | 0
O=C(Nc1n[nH]c2nc(-c3ccco3)c(Br)cc12)c1ccc(CN2CCCC2)cc1.O=C(O)[C@H](O)[C@@H](O)C(=O)O | IKK-alpha | 0
CNc1nccc(-c2c(-c3ccc(F)cc3)ncn2CCCN2CCOCC2)n1 | IKK-alpha | 0
COc1ccc(Nc2nccc(N3CCC(NC(=O)Nc4ccc5c(c4)OCO5)C3)n2)cc1 (stereo not drawn) | IKK-alpha | 7
Nc1n[nH]c2nnc(-c3ccccc3)cc12 | IKK-alpha | 6
COc1cc2ncnc(Nc3ccc(OCc4ccccc4Br)c(Cl)c3)c2cc1OC.Cl | IKK-alpha | 32
O=C(c1ccc(-c2cc(-c3c[nH]nc3-c3ccccn3)ccn2)cc1)N1CCCC1 | IKK-alpha | 0
Cc1cccc(-c2nc(Nc3ccc4[nH]nnc4c3)c3ccccc3n2)n1 | IKK-alpha | 0
Nc1nccc2scc(-c3ccc4c(c3)CCN4C(=O)Cc3cc(F)ccc3F)c12 | IKK-alpha | 5
Clc1cccc(-c2nc(Nc3ccncc3)c3ccccc3n2)c1 | IKK-alpha | 0
CCC(CC)(CC)n1cnc2c(N)ncnc21 | IKK-alpha | 30
O=C(NCCCN1CCCC1=O)c1cnc(NCc2cc(Cl)ccc2Cl)nc1NC1CCNCC1 | IKK-alpha | 0
Clc1cc(Nc2ncnc3cc[nH]c23)ccc1OCc1ccccn1 | IKK-alpha | 9
